The measured values listed here are drawn from ChEMBL document CHEMBL1141091.

assay: Bioavailability observed in dog at a dose of both intravenously and orally at 5 mg/kg; assay type: ADME, organism-based, Canis lupus familiaris; details: in vivo, po
TEST READOUT: bioavailability (%)
Numbers only here, please. The scale is %.

Q: Give reported bioavailability value for `Cc1cccc(NC(=O)Nc2ccc(-c3csc4ncnc(N)c34)cc2)c1`
A: 40
